Hey, just so you know, these numbers are from ChEMBL document CHEMBL4477245.

# TARGET SYSTEM: Cytochrome P450 3A4 (Homo sapiens, UniProt P08684)
# Sequence (P08684 whole entry): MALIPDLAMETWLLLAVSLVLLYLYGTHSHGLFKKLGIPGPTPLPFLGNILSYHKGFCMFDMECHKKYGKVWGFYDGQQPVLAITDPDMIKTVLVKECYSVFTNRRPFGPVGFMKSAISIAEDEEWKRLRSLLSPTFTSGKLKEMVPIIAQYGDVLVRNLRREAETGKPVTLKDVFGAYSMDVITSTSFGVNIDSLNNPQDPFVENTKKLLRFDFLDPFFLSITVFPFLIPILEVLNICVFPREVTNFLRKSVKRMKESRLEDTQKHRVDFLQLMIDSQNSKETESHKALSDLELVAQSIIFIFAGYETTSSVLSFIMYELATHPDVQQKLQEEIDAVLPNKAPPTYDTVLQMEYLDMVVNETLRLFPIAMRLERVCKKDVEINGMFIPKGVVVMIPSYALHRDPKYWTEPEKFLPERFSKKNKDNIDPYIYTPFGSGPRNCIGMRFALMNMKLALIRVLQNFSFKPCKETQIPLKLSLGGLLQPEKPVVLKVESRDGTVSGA
pIC50: −log10 of the molar value.
METRIC NAME: pIC50

SMILES STRING	MEASURED
COc1nn2cc(-c3c(CO)n(Cc4ccccc4Cl)c4ccc(OC(F)(F)F)cc34)nc2s1	< 4.52

---

# TARGET SYSTEM: Proteinase-activated receptor 4 (Homo sapiens, UniProt Q96RI0)
# Sequence (Q96RI0 whole entry, the tested form may be a part): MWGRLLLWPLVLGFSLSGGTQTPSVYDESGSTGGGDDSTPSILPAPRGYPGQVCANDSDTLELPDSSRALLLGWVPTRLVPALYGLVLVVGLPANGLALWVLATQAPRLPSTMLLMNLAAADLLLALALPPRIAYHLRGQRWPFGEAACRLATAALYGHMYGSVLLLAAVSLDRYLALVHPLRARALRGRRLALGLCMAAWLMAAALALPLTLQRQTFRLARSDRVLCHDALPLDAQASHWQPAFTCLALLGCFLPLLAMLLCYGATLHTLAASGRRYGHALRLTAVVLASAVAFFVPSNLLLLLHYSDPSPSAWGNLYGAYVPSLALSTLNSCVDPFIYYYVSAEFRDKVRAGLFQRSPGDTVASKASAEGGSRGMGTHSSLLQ
# ASSAY EXPLANATION: Antagonist activity against PAR4 activating peptide domain in human platelets assessed as inhibition of alpha2bbeta3 activation level by PAC1 binding assay
METRIC NAME: log10 IC50 (log10 of the value in µM)

SMILES STRING	TARGET SYSTEM	METRIC NAME	MEASURED
CCOc1ncc(-c2c(CO)n(Cc3ccccc3Cl)c3ccc(OC(F)(F)F)cc23)cn1	Proteinase-activated receptor 4 (Homo sapiens, UniProt Q96RI0)	log10 IC50	0.69
COc1ccc2c(-c3cnc(SC)nc3)c(CO)n(Cc3ccccc3Cl)c2c1	Proteinase-activated receptor 4 (Homo sapiens, UniProt Q96RI0)	log10 IC50	0.62
CCOc1ccc2c(-c3ccc(OC)nc3)c(CO)n(Cc3ccccc3Cl)c2c1	Proteinase-activated receptor 4 (Homo sapiens, UniProt Q96RI0)	log10 IC50	0.58
COc1ccc(-c2c(CO)n(Cc3cccc(C(F)(F)F)c3)c3ccc(OC(F)(F)F)cc23)cn1	Proteinase-activated receptor 4 (Homo sapiens, UniProt Q96RI0)	log10 IC50	0.68
COc1ccc(-c2c(CO)n(Cc3cccc(Br)c3)c3ccc(OC(F)(F)F)cc23)cn1	Proteinase-activated receptor 4 (Homo sapiens, UniProt Q96RI0)	log10 IC50	0.34
COc1ccc(-c2c(CO)n(Cc3ccc(F)cc3F)c3ccc(OC(F)(F)F)cc23)cn1	Proteinase-activated receptor 4 (Homo sapiens, UniProt Q96RI0)	log10 IC50	0.71
CSc1ncc(-c2c(CO)n(Cc3ccccc3Cl)c3cc(OC(F)(F)F)ccc23)cn1	Proteinase-activated receptor 4 (Homo sapiens, UniProt Q96RI0)	log10 IC50	-0.68
CSc1ncc(-c2c(CO)n(Cc3ccc(F)cc3F)c3ccc(OC(F)(F)F)cc23)cn1	Proteinase-activated receptor 4 (Homo sapiens, UniProt Q96RI0)	log10 IC50	0.17
COc1ccc(-c2c(CO)n(Cc3ccccc3Cl)c3cc(OC(F)(F)F)ccc23)cn1	Proteinase-activated receptor 4 (Homo sapiens, UniProt Q96RI0)	log10 IC50	-0.03
COc1ncc(-c2c(CO)n(Cc3ccccc3Cl)c3ccc(OC(F)(F)F)cc23)cn1	Proteinase-activated receptor 4 (Homo sapiens, UniProt Q96RI0)	log10 IC50	0.18
COc1ccc2c(-c3ccc(OC)nc3)c(CO)n(Cc3ccccc3Cl)c2c1	Proteinase-activated receptor 4 (Homo sapiens, UniProt Q96RI0)	log10 IC50	0.14
COc1nn2cc(-c3c(CO)n(Cc4ccccc4Cl)c4ccc(OC(F)(F)F)cc34)nc2s1	Proteinase-activated receptor 4 (Homo sapiens, UniProt Q96RI0)	log10 IC50	-0.74

---

# TARGET SYSTEM: Proteinase-activated receptor 4 (Homo sapiens) (UniProt Q96RI0)
# ASSAY EXPLANATION: Antagonist activity against PAR4 activating peptide domain in human platelets assessed as inhibition of alpha2bbeta3 activation level at 10 uM by PAC1 binding assay
Each entry falls in a class defined on %max; the bands are low range (below 10%), mid range (10% to below 50%), high range (50% or more)

SMILES STRING	CATEGORY LABEL
COc1cccc(Cn2c(CO)c(-c3ccc(OC)nc3)c3cc(C(F)(F)F)ccc32)c1	high range
COc1ncc(-c2c(CO)n(Cc3ccc(F)cc3F)c3ccc(OC(F)(F)F)cc23)cn1	high range
COc1ccc(-c2c(CO)n(Cc3cccc(Br)c3)c3ccc(OC(F)(F)F)cc23)cn1	mid range
COc1ccc(-c2c(CO)n(Cc3ccccc3)c3ccc(OC(F)(F)F)cc23)cn1	high range
CSc1ncc(-c2c(CO)n(Cc3ccc(F)cc3F)c3ccc(OC(F)(F)F)cc23)cn1	mid range
COc1ncc(-c2c(CO)n(Cc3ccccc3Cl)c3ccc(OC(F)(F)F)cc23)cn1	low range
COc1ccc(-c2c(CO)n(Cc3ccccc3Cl)c3cc(OC(F)(F)F)ccc23)cn1	mid range
COc1ccc2c(-c3ccc(OC)nc3)c(CO)n(Cc3ccccc3Cl)c2c1	low range
COc1nn2cc(-c3c(CO)n(Cc4ccccc4Cl)c4ccc(OC(F)(F)F)cc34)nc2s1	low range
COc1ccc(-c2c(CO)n(Cc3cccc(F)c3)c3ccc(OC(F)(F)F)cc23)cn1	high range
COc1ccc(-c2c(CO)n(Cc3cccc(Cl)c3)c3ccc(OC(F)(F)F)cc23)cn1	high range
